Value source: PubChem BioAssay AID781

- target of assay: 14-3-3 protein zeta/delta (Bos taurus)
- assay overview: disruptors of 14-3-3 zeta phospho-Bad complex – biochemical, TR-FRET, bovine 14-3-3 zeta, primary screen (AID 781);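 also: 0% = full 14-3-3 plus peptide FRET controls and 100% = background without 14-3-3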
- condition: TR-FRET 14-3-3zeta/Dy647-pBad peptide displacement, 1 h; at 21.7 µM
The whole screen tested about 220,000 compounds, of which about 1,600 (0.73%) were called active.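 The calls were made as follows: active = inhibition above about 70% (limit read from the data); inactive = the rest.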 The sample as a whole holds a higher share of actives than the screen did.
Hi! Could you answer with just one of these? active, inactive

Answered cases to consult:
{"compound": "COc1ccc(-n2c(SCC(=O)Nc3sc4c(c3C#N)CCCC4)nnc2-c2ccc(O)cc2)cc1", "target of assay": "14-3-3 protein zeta/delta (Bos taurus)", "label": "active"}
{"compound": "S=c1[nH]nc(-c2cc(-c3ccccc3)n[nH]2)n1/N=C/c1c2ccccc2cc2ccccc12", "target of assay": "14-3-3 protein zeta/delta (Bos taurus)", "label": "active"}
{"compound": "O=C(NCc1cccs1)c1cc(-c2ccccn2)nc2ccc(Br)cc12", "target of assay": "14-3-3 protein zeta/delta (Bos taurus)", "label": "active"}
{"compound": "O=C(NCC(c1cccs1)N1CCOCC1)c1cc(-c2ccccn2)nc2ccccc12 (configuration not stated)", "target of assay": "14-3-3 protein zeta/delta (Bos taurus)", "label": "inactive"}
{"compound": "COc1cccc(CNCCc2c[nH]c3ccccc23)c1OCc1ccccc1F", "target of assay": "14-3-3 protein zeta/delta (Bos taurus)", "label": "inactive"}

*Q* I'd appreciate the recorded outcome for "O=Cc1ccc(OCc2cn3ccccc3n2)cc1" from this test.
*A* inactive

*Q* Try this compound next: "Cc1cccc(C(=O)Nc2ccc3c(c2)C(=O)N(CC(C)C)C3=O)c1"
*A* inactive

----------
- target of assay: 14-3-3 protein zeta/delta (Bos taurus)
- assay overview: disruptors of 14-3-3 zeta phospho-Bad complex – biochemical, TR-FRET, bovine 14-3-3 zeta, primary screen (AID 781);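 also: 0% = full 14-3-3 plus peptide FRET controls and 100% = background without 14-3-3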
- condition: TR-FRET 14-3-3zeta/Dy647-pBad peptide displacement, 1 h; at 21.7 µM; active compounds read high
Screen size: about 220,000 compounds; about 1,600 (0.73%) were called active. The full list was thinned out, with actives kept by preference.
Please provide measured inhibition for the entries that follow.
Numbers only, in %.

Record excerpt, results attached:
{"smiles repr": "COc1ccc(C(=O)Nc2cccnc2)cc1C(=O)Nc1cccnc1", "target of assay": "14-3-3 protein zeta/delta (Bos taurus)", "inhibition [%]": 2.89}
{"smiles repr": "CC(C)Nc1nnc(SCC(=O)/C=C2\\N(C)c3ccccc3C2(C)C)s1", "target of assay": "14-3-3 protein zeta/delta (Bos taurus)", "inhibition [%]": 0.42}
{"smiles repr": "COCc1cc(C)nc2sc3c(=O)n(-c4cccc5ccccc45)nnc3c12", "target of assay": "14-3-3 protein zeta/delta (Bos taurus)", "inhibition [%]": 5.95}
{"smiles repr": "COC(=O)c1cc(NC(=O)CN2CCN(C(C)=O)CC2)cc(C(=O)OC)c1", "target of assay": "14-3-3 protein zeta/delta (Bos taurus)", "inhibition [%]": -3.76}
{"smiles repr": "O=C(CN1CCCCC1)Nc1ccccc1Cl", "target of assay": "14-3-3 protein zeta/delta (Bos taurus)", "inhibition [%]": -5.94}
{"smiles repr": "O=C(CN1CCN(C2CCCCC2)CC1)Nc1ccccc1N1CCCCC1", "target of assay": "14-3-3 protein zeta/delta (Bos taurus)", "inhibition [%]": 72.6}

*Q* Sample "COc1ccc(-n2nnc3c(=O)n(CC(=O)OCc4ccccc4)cnc32)cc1" — what was its inhibition?
*A* 7.97
